For each record, write down the corresponding protein stability index.
B1: PKD2L1 (parent)
chain: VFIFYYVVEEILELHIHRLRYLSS

variants of: B1; experiment: protein stability index of a GFP-peptide fusion (GPS, HEK-293T) (PSI 1-6); higher = more stable; details: c terminus: a fixed tail appended;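 also: lentivirally expressed fusions sorted by FACS into six bins by GFP to DsRed ratio, PSI derived from sequencing read proportions per bin multiplied by bin number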
Answers are plain numbers.

[
  {
    "variant_string": "E13H",
    "protein stability index": 3.19
  },
  {
    "variant_string": "Y6M",
    "protein stability index": 2.17
  },
  {
    "variant_string": "L12T",
    "protein stability index": 3.03
  },
  {
    "variant_string": "H17P",
    "protein stability index": 2.54
  }
]

Record protein stability index per entry; entries follow.
1. Y5E
2. R20Q
3. I16G
4. Y21M

Reply |
1: 2.14; 2: 1.89; 3: 3.3; 4: 4.01

Record protein stability index per entry; entries follow.
1. E10R
2. R20G
3. V7F
4. L12D
5. H17Y
6. S24K
7. H15M
8. Y21H

Reply |
1: 2.41; 2: 2.12; 3: 1.93; 4: 2.63; 5: 2.69; 6: 1.12; 7: 3.1; 8: 2.96

Record protein stability index per entry; entries follow.
1. V8H
2. H15D

Reply |
1. 2.51
2. 2.24
